# Experiment Description: AUC (0 to t) in Sprague-Dawley rat at 50 mg/kg, po administered as single dose via gavage by LC/MS analysis
# Assay type: ADME, organism-based
# Details: in vivo
Measured Attribute: AUC(0-t) (ng·h/mL)
Please give a number only; it is taken to be in ng·h/mL.

Field AUC(0-t) (entry "Cl.Cn1ncc(Cl)c1-c1ccc(C(=O)N[C@@H]2CNCC[C@H]2c2cccc(F)c2)cc1" ) reads 4670

---

# Tested on: RAW264.7
# Experiment Description: Modulation of M1 polarization in mouse RAW264.7 cells assessed as change in Mcp1 mRNA expression at 300 nM measured after 24 hrs by qRT-PCR analysis relative to control
# Type: functional, cell-based
# Details: RAW264.7, 24 h, read-out: FC
Measured Attribute: fold induction at 0.3 µM
Give a plain numeric answer without units written out.

Field fold induction at 0.3 µM (entry "O=C(NCCN1CCC(c2ccccc2)CC1)c1ccc(-c2cc[nH]n2)cc1" ) reads 2.14

Field fold induction at 0.3 µM (entry "Cc1cc(-c2c(Br)cnn2C)cnc1C(=O)N[C@@H]1CNCC[C@H]1c1cccc(F)c1.Cl" ) reads 1.63

Field fold induction at 0.3 µM (entry "COc1ccccc1C(=O)N[C@@H]1CNCC[C@H]1c1cccc(F)c1.Cl" ) reads 1.42

Field fold induction at 0.3 µM (entry O=C(NCCN1CCC(c2ccccc2)C1)c1ccc(-c2cc[nH]n2)cc1 (configuration not stated) ) reads 1.86

Field fold induction at 0.3 µM (entry Cn1nccc1C(=O)N1CC(c2cc(F)cc(F)c2)C2[C@H]1C1CCN2CC1 (single isomer, unassigned) ) reads 1.4

***
Field fold induction at 0.3 µM (entry "Cc1cc(-c2ccnn2C)cnc1C(=O)N[C@@H]1CNCC[C@H]1c1cccc(F)c1.Cl" ) reads 1.99

Field fold induction at 0.3 µM (entry "Cl.Cn1nccc1-c1ccc(C(=O)N[C@@H]2CNCC[C@H]2c2ccc(Cl)c(C(F)(F)F)c2)cc1Cl" ) reads 1.49

Field fold induction at 0.3 µM (entry "Cl.Cn1ncc(Cl)c1-c1ccc(C(=O)N[C@@H]2CNCC[C@H]2c2ccc(Cl)c(C(F)(F)F)c2)cc1" ) reads 5.08

Field fold induction at 0.3 µM (entry "Cl.Cn1nccc1-c1ccc(C(=O)N[C@@H]2CNCC[C@H]2c2ccc(F)c(F)c2)c(F)c1" ) reads 0.39

Field fold induction at 0.3 µM (entry "Cl.Cn1nccc1-c1ccc(C(=O)N[C@@H]2CNCC[C@H]2c2cccc(F)c2)c(F)c1" ) reads 1.54

Field fold induction at 0.3 µM (entry "Cl.Cn1ncc(Br)c1-c1ccc(C(=O)N[C@@H]2CNCC[C@H]2c2ccc(F)c(F)c2)cn1" ) reads 1.32

Field fold induction at 0.3 µM (entry "Cl.Cn1ncc(Cl)c1-c1ccc(C(=O)N[C@@H]2CNCC[C@H]2c2ccc(F)c(F)c2)cc1Cl" ) reads 1.16
